The values you see were collected from patent US9371294B2.

Target: cholesteryl ester transfer protein (Homo sapiens)
Construct: As a source of cholesteryl ester transfer protein, plasma from healthy humans was used
Assay: In vitro test for the ability to inhibit cholesteryl ester transfer
Conditions: [3H]-cholesteryl oleate transfer from rHDL-agarose to LDL; human plasma as CETP source; 37° C.; 16-10000 nM, duplicate

| cpd_smiles | system_under_test | IC50 (µM) |
| --- | --- | --- |
| COc1cc(F)c(C(C)C)cc1C1=C(CN2C(=O)O[C@H](c3cc(C(F)(F)F)cc(C(F)(F)F)c3)[C@@H]2C)CCC(C)(C)C1 | cholesteryl ester transfer protein (Homo sapiens) | 0.02 |
| COc1cc(F)c(OC(C)C)cc1C1=C(CN2C(=O)O[C@H](c3cc(C(F)(F)F)cc(C(F)(F)F)c3)[C@@H]2C)CC(C)(C)CC1 | cholesteryl ester transfer protein (Homo sapiens) | 0.39 |
| COc1cc(C)c(N(C)C(C)=O)cc1C1=C(CN2C(=O)O[C@H](c3cc(C(F)(F)F)cc(C(F)(F)F)c3)[C@@H]2C)CC(C)(C)CC1 | cholesteryl ester transfer protein (Homo sapiens) | 0.001 |

---

Biological target: cholesteryl ester transfer protein (Homo sapiens, UniProt P11597)
Construct: As a source of cholesteryl ester transfer protein, plasma from healthy humans was used
Sequence (P11597 18-493): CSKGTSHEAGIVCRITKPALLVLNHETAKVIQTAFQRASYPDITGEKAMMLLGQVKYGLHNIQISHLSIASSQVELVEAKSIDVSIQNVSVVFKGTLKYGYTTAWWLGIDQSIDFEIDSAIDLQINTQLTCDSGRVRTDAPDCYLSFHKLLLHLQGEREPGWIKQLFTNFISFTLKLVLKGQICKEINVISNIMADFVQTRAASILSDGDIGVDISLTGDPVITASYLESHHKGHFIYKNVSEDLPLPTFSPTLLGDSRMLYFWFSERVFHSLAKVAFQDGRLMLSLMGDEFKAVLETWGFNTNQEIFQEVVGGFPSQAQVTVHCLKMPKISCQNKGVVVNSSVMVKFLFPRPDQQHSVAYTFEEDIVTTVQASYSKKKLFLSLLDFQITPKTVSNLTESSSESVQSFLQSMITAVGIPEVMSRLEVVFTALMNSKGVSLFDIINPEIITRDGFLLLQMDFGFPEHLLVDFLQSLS
Assay: In vitro test for the ability to inhibit cholesteryl ester transfer
Settings: [3H]-cholesteryl oleate transfer from rHDL-agarose to LDL; human plasma as CETP source; 37° C.; 16-10000 nM, duplicate
pIC50: −log10 of the molar value.
Entries and their pIC50 values follow.

| molecule | pIC50 |
| --- | --- |
| COc1cc(F)c(C(C)C)cc1C1=C(CN2C(=O)O[C@H](c3cc(C(F)(F)F)cc(C(F)(F)F)c3)[C@@H]2C)CN(C)CC1 [Compound 231] | 6.15 |
| COc1ccc(C(C)(C)O)cc1C1=C(CN2C(=O)O[C@H](c3cc(C(F)(F)F)cc(C(F)(F)F)c3)[C@@H]2C)CC(C)(C)CC1 [Compound 104] | 6.74 |
| COc1ccc(C2=NCCO2)cc1C1=C(CN2C(=O)O[C@H](c3cc(C(F)(F)F)cc(C(F)(F)F)c3)[C@@H]2C)CC(C)(C)CC1 [Compound 185] | 6.74 |
| COc1cc(F)c(C(C)C)cc1C1=C(CN2C(=S)O[C@H](c3cc(C(F)(F)F)cc(C(F)(F)F)c3)[C@@H]2C)CCCC1 [Compound 28] | 6.41 |
| COc1ccc(N(C)S(C)(=O)=O)cc1C1=C(CN2C(=O)O[C@H](c3cc(C(F)(F)F)cc(C(F)(F)F)c3)[C@@H]2C)CC(C)(C)CC1 [Compound 128] | 7.22 |
| COc1cc(F)c(C(C)C)cc1C1=C(CN2C(=O)O[C@H](c3cc(C(F)(F)F)cc(C(F)(F)F)c3)[C@@H]2C)CCCC1 [Compound 27] | 6.62 |
| COc1cc(F)c(C(C)=O)cc1C1=C(CN2C(=O)O[C@H](c3cc(C(F)(F)F)cc(C(F)(F)F)c3)[C@@H]2C)CC(C)(C)CC1 [Compound 184] | 7.70 |
| COc1ccc(CC(C)(C)C(=O)O)cc1C1=C(CN2C(=O)O[C@H](c3cc(C(F)(F)F)cc(C(F)(F)F)c3)[C@@H]2C)CC(C)(C)CC1 [Compound 286] | 7.92 |
| COc1cc(F)c(C(C)C)cc1C1=C(CN2C(=O)O[C@H](c3cc(C(F)(F)F)cc(C(F)(F)F)c3)[C@@H]2C)CC2(CC1)CC2 [Compound 274] | 7.85 |
| COc1cc(F)c(C(C)C)cc1C1=C(CN2C(=O)O[C@H](c3cc(C(F)(F)F)cc(C(F)(F)F)c3)[C@@H]2C)CN(C(C)C)CC1 [Compound 265] | 6.79 |
| COc1cc(C)c(N(C)S(=O)(=O)C(F)(F)F)cc1C1=C(CN2C(=O)O[C@H](c3cc(C(F)(F)F)cc(C(F)(F)F)c3)[C@@H]2C)CC(C)(C)CC1 [Compound 251] | 6.16 |
| CNC(=O)C(C)(C)Cc1ccc(OC)c(C2=C(CN3C(=O)O[C@H](c4cc(C(F)(F)F)cc(C(F)(F)F)c4)[C@@H]3C)CC(C)(C)CC2)c1 [Compound 321] | 6.98 |
| COc1ccc(Cl)cc1C1=C(CN2C(=O)O[C@H](c3cc(C(F)(F)F)cc(C(F)(F)F)c3)[C@@H]2C)CC(C)(C)CC1 [Compound 353] | 7.52 |
| COc1ccc(NC(C)=O)cc1C1=C(CN2C(=O)O[C@H](c3cc(C(F)(F)F)cc(C(F)(F)F)c3)[C@@H]2C)CC(C(F)(F)F)CC1 (stereo partly drawn) [Compound 196] | 6.31 |
| COc1ccc(C2(C(N)=O)CC2)cc1C1=C(CN2C(=O)O[C@H](c3cc(C(F)(F)F)cc(C(F)(F)F)c3)[C@@H]2C)CC(C)(C)CC1 [Compound 190] | 8.00 |
| COc1ccc(C(OC)(C(F)(F)F)C(F)(F)F)cc1C1=C(CN2C(=O)O[C@H](c3cc(C(F)(F)F)cc(C(F)(F)F)c3)[C@@H]2C)CC(C)(C)CC1 [Compound 182] | 7.30 |
| COc1ccc(C2=N[C@H](C(C)C)CO2)cc1C1=C(CN2C(=O)O[C@H](c3cc(C(F)(F)F)cc(C(F)(F)F)c3)[C@@H]2C)CC(C)(C)CC1 [Compound 188] | 6.92 |
| COc1ccc(N)cc1C1=C(CN2C(=O)O[C@H](c3cc(C(F)(F)F)cc(C(F)(F)F)c3)[C@@H]2C)CC(C(F)(F)F)CC1 (stereo partly drawn) [Compound 195] | 6.08 |
